# System: P-4E-BP1 (T37/46)
# ASSAY_PROCEDURE: Cell based AlphaLISA assay, inhibition of P-4E-BP1 (T37/46) in MDA-MB-468 cells
# EXPERIMENTAL_PARAMETERS: Homo sapiens, 4 h, 0.017-1,000 nM, two to four hours at 37° C., AlphaLisa SureFire Ultra, read-out: pIC50 for Inhibition of mTORC1 and mTORC2 Substrate Phosphorylation, p-4E-BP1-(T37/46) (converted)
READOUT_TYPE: IC50

INSERT INTO measurements (structure_as_smiles, observed_result) VALUES
  ('CO[C@H]1C[C@@H]2CC[C@@H](C)[C@@](O)(O2)C(=O)C(=O)N2CCCC[C@H]2C(=O)O[C@H]([C@H](C)C[C@@H]2CC[C@@H](O)[C@H](OC)C2)C[C@@H](O)[C@H](C)/C=C(\C)[C@@H](O)[C@@H](OC)C(=NOCC(=O)NCc2cnc(N3CCN(C(=O)CCOCCN4CCN(C(=O)CN(C)CC(=O)N5CCc6cc(Cn7nc(-c8ccc9oc(N)nc9c8)c8c(N)ncnc87)ccc6C5)CC4)CC3)nc2)[C@H](C)C[C@H](C)/C=C/C=C/C=C/1C', '31.6 to 1000 nM');

----------
# Test system: P-4E-BP1 (T37/46)
# ASSAY_PROCEDURE: Cell based AlphaLISA assay, inhibition of P-4E-BP1 (T37/46) in MDA-MB-468 cells
# EXPERIMENTAL_PARAMETERS: Homo sapiens, 4 h, 0.017-1,000 nM, two to four hours at 37° C., AlphaLisa SureFire Ultra, read-out: pIC50 for Inhibition of mTORC1 and mTORC2 Substrate Phosphorylation, p-4E-BP1-(T37/46) (converted)
READOUT_TYPE: IC50

INSERT INTO results (structure_as_smiles, target_desc, observed_result) VALUES
  ('CO[C@H]1C[C@@H]2CC[C@@H](C)[C@@](O)(O2)C(=O)C(=O)N2CCCC[C@H]2C(=O)O[C@H]([C@H](C)C[C@@H]2CC[C@@H](O)[C@H](OC)C2)C[C@@H](O)[C@H](C)/C=C(\C)[C@@H](O)[C@@H](OC)C(=NOCC(=O)NCCOCCOCCOCCOCCC(=O)N2CCN(c3ncc(C(=O)NCCCCn4nc(-c5ccc6oc(N)nc6c5)c5c(N)ncnc54)cn3)CC2)[C@H](C)C[C@H](C)/C=C/C=C/C=C/1C', 'P-4E-BP1 (T37/46)', '0.00316 to 0.0316 µM'),
  ('CO[C@H]1C[C@@H]2CC[C@@H](C)[C@@](O)(O2)C(=O)C(=O)N2CCCC[C@H]2C(=O)O[C@H]([C@H](C)C[C@@H]2CC[C@@H](O)[C@H](OC)C2)C[C@@H](O)[C@H](C)/C=C(\C)[C@@H](O)[C@@H](OC)C(=NOCC(=O)NCc2cnc(N3CCN(C(=O)CN(C)CC(=O)NCCOCCOCCC(=O)N4CCc5cc(Cn6nc(-c7ccc8oc(N)nc8c7)c7c(N)ncnc76)ccc5C4)CC3)nc2)[C@H](C)C[C@H](C)/C=C/C=C/C=C/1C', 'P-4E-BP1 (T37/46)', '0.0316 to 1 µM');

----------
# Tested on: P-Akt (S473)
# ASSAY_PROCEDURE: Cell based AlphaLISA assay, inhibition of P-Akt (S473) in MDA-MB-468 cells
# EXPERIMENTAL_PARAMETERS: Homo sapiens, 4 h, 0.017-1,000 nM, two to four hours at 37° C., AlphaLisa SureFire Ultra, read-out: pIC50 for Inhibition of mTORC1 and mTORC2 Substrate Phosphorylation, p-AKT1/2/3-(S473) (converted)
READOUT_TYPE: IC50

INSERT INTO results (structure_as_smiles, observed_result) VALUES
  ('CO[C@H]1C[C@@H]2CC[C@@H](C)[C@@](O)(O2)C(=O)C(=O)N2CCCC[C@H]2C(=O)O[C@H]([C@H](C)C[C@@H]2CC[C@@H](O)[C@H](OC)C2)C[C@@H](O)[C@H](C)/C=C(\C)[C@@H](O)[C@@H](OC)C(=NOCC(=O)N2CCc3nc(N4CCN(c5ncc(C(=O)NCCOCCOCCOCCC(=O)NCCCCn6nc(-c7ccc8oc(N)nc8c7)c7c(N)ncnc76)cn5)CC4)ncc3C2)[C@H](C)C[C@H](C)/C=C/C=C/C=C/1C', '0.0316 to 1 µM'),
  ('CO[C@H]1C[C@@H]2CC[C@@H](C)[C@@](O)(O2)C(=O)C(=O)N2CCCC[C@H]2C(=O)O[C@H]([C@H](C)C[C@@H]2CC[C@@H](O)[C@H](OC)C2)C[C@@H](O)[C@H](C)/C=C(\C)[C@@H](O)[C@@H](OC)C(=NOCC(=O)NCc2cnc(N3CCN(C(=O)CN(C)CC(=O)NCCOCCOCCC(=O)N4CCc5cc(Cn6nc(-c7ccc8oc(N)nc8c7)c7c(N)ncnc76)ccc5C4)CC3)nc2)[C@H](C)C[C@H](C)/C=C/C=C/C=C/1C', '> 1 µM'),
  ('COc1ccc(-c2ccc3ncc4c(c3c2)n(-c2ccc(N3CCN(C(=O)CCOCCOCCOCCOCCOCCOCCNC(=O)CON=C5[C@H](C)C[C@H](C)/C=C/C=C/C=C(\C)[C@@H](OC)C[C@@H]6CC[C@@H](C)[C@@](O)(O6)C(=O)C(=O)N6CCCC[C@H]6C(=O)O[C@H]([C@H](C)C[C@@H]6CC[C@@H](O)[C@H](OC)C6)C[C@@H](O)[C@H](C)/C=C(\C)[C@@H](O)[C@H]5OC)CC3)c(C(F)(F)F)c2)c(=O)n4C)cn1', '0.00316 to 0.0316 µM'),
  ('CO[C@H]1C[C@@H]2CC[C@@H](C)[C@@](O)(O2)C(=O)C(=O)N2CCCC[C@H]2C(=O)O[C@H]([C@H](C)C[C@@H]2CC[C@@H](O)[C@H](OC)C2)C[C@@H](O)[C@H](C)/C=C(\C)[C@@H](O)[C@@H](OC)C(=NOCC(=O)NCCOCCOCCOCCOCCOCCOCCOCCOCCC(=O)NCCCCn2nc(-c3ccc4oc(N)nc4c3)c3c(N)ncnc32)[C@H](C)C[C@H](C)/C=C/C=C/C=C/1C', '0.0316 to 1 µM'),
  ('CO[C@H]1C[C@@H]2CC[C@@H](C)[C@@](O)(O2)C(=O)C(=O)N2CCCC[C@H]2C(=O)O[C@H]([C@H](C)C[C@@H]2CC[C@@H](O)[C@H](OC)C2)C[C@@H](O)[C@H](C)/C=C(\C)[C@@H](O)[C@@H](OC)C(=NOCC(=O)NCc2cnc(N3CCN(C(=O)CCOCCN4CCN(c5ncc(C(=O)N6CCc7cc(Cn8nc(-c9ccc%10oc(N)nc%10c9)c9c(N)ncnc98)ccc7C6)cn5)CC4)CC3)nc2)[C@H](C)C[C@H](C)/C=C/C=C/C=C/1C', '> 1 µM'),
  ('CO[C@H]1C[C@@H]2CC[C@@H](C)[C@@](O)(O2)C(=O)C(=O)N2CCCC[C@H]2C(=O)O[C@H]([C@H](C)C[C@@H]2CC[C@@H](O)[C@H](OC)C2)C[C@@H](O)[C@H](C)/C=C(\C)[C@@H](O)[C@@H](OC)C(=NOCC(=O)NCCOCCOCCOCCOCCC(=O)N2CCN(c3ncc(C(=O)NCCCCn4nc(-c5ccc6oc(N)nc6c5)c5c(N)ncnc54)cn3)CC2)[C@H](C)C[C@H](C)/C=C/C=C/C=C/1C', '0.0316 to 1 µM'),
  ('CO[C@H]1C[C@@H]2CC[C@@H](C)[C@@](O)(O2)C(=O)C(=O)N2CCCC[C@H]2C(=O)O[C@H]([C@H](C)C[C@@H]2CC[C@@H](O)[C@H](OC)C2)C[C@@H](O)[C@H](C)/C=C(\C)[C@@H](O)[C@@H](OC)C(=NOCC(=O)NCc2cnc(N3CCN(C(=O)CCOCCN4CCN(c5ncc(C(=O)NCCOCCC(=O)N6CCc7cc(Cn8nc(-c9ccc%10oc(N)nc%10c9)c9c(N)ncnc98)ccc7C6)cn5)CC4)CC3)nc2)[C@H](C)C[C@H](C)/C=C/C=C/C=C/1C', '> 1 µM'),
  ('CO[C@H]1C[C@@H]2CC[C@@H](C)[C@@](O)(O2)C(=O)C(=O)N2CCCC[C@H]2C(=O)O[C@H]([C@H](C)C[C@@H]2CC[C@@H](O)[C@H](OC)C2)C[C@@H](O)[C@H](C)/C=C(\C)[C@@H](O)[C@@H](OC)C(=NOCC(=O)NCCOCCOCCOCCOCCOCCOCCC(=O)NCCCCn2nc(-c3cnc4[nH]ccc4c3)c3c(N)ncnc32)[C@H](C)C[C@H](C)/C=C/C=C/C=C/1C', '> 1 µM'),
  ('CO[C@H]1C[C@@H]2CC[C@@H](C)[C@@](O)(O2)C(=O)C(=O)N2CCCC[C@H]2C(=O)O[C@H]([C@H](C)C[C@@H]2CC[C@@H](O)[C@H](OC)C2)C[C@@H](O)[C@H](C)/C=C(\C)[C@@H](O)[C@@H](OC)C(=NOCC(=O)NCc2cnc(N3CCN(C(=O)CCCN4CCN(c5ncc(C(=O)N6CCC(n7nc(-c8ccc9oc(N)nc9c8)c8c(N)ncnc87)CC6)cn5)CC4)CC3)nc2)[C@H](C)C[C@H](C)/C=C/C=C/C=C/1C', '> 1 µM');

Cited source: patent US12187746B2
